# Method Summary: Selectivity index, ratio of CC50 for cytotoxicity against TNF-alpha induced HEK293T cells to IC50 for inhibition of TNF-alpha induced NF-kappaB activation in HEK293T cells
# Format: toxicity, cell-based
# Assay Conditions: human, HEK293T cells induced with TNF-alpha; read-out: Ratio IC50
// not fulfilled strictly below 5 in selectivity ratio; fulfilled otherwise

CCOC(=O)C1=C(C(=O)OCC)C2C=CC1O2
not fulfilled
COC(=O)C1=C(C(=O)OC)C2OC1CC2C#Cc1ccc(C)cc1 (stereo unspecified)
fulfilled
COc1ccc(C#CC2CC3OC2c2cc(Br)c(Br)cc23)cc1 (stereo unspecified)
not fulfilled
C1=CC2OC1c1ccccc12
fulfilled
COC(=O)C1=C(C(=O)OC)C2OC1CC2C#Cc1ccc(Cl)cc1 (stereo unspecified)
not fulfilled
CCOC(=O)C1=C(C(=O)OCC)C2OC1CC2C#Cc1ccc(OC)cc1 (stereo unspecified)
not fulfilled
COC(=O)C1=C(C(=O)OC)C2OC1CC2C#Cc1cc(OC)cc(OC)c1 (stereo unspecified)
fulfilled
COc1ccc(C#CC2CC3OC2c2ccccc23)cc1 (stereo unspecified)
not fulfilled
COC(=O)C1=C(C(=O)OC)C2OC1CC2C#Cc1ccc(F)cc1 (stereo unspecified)
not fulfilled
